- tested target: human AR (Homo sapiens, UniProt P10275)
- Construct: expressed in transfected cells; host or cells: COS-1 cells
- Sequence (P10275 whole entry): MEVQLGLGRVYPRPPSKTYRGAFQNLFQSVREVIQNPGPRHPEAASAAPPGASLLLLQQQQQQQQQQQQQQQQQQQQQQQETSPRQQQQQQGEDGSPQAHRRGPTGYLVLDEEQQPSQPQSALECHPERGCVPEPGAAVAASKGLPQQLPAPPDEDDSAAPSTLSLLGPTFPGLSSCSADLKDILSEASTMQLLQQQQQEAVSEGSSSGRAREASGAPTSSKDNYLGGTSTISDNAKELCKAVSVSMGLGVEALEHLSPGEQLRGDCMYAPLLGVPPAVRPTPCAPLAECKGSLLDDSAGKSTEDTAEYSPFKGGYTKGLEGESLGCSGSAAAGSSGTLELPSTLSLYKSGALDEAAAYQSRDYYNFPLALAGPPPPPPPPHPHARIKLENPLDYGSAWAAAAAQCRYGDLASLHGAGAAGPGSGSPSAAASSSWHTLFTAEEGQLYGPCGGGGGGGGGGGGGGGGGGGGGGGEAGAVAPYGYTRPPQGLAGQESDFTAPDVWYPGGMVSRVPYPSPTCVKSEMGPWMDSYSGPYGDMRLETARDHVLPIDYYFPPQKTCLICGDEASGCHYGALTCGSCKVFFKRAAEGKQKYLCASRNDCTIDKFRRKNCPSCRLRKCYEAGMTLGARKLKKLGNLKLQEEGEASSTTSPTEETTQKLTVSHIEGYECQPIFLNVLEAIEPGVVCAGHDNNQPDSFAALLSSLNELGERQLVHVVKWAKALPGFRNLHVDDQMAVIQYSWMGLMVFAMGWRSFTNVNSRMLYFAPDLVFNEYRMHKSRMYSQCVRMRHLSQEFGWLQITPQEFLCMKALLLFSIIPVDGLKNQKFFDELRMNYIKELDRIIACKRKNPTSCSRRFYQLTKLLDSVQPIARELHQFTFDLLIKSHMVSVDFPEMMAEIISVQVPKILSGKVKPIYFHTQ
- assay info: IR Binding Assay: whole cell competitive binding of test compounds against 3H-DHT in COS-1 cells transfected with pRShAR
pKi: −log10 of the molar value.
measured metric: pKi

Illustrative cases are given below, each with its answer.
| molecule | value observed |
| --- | --- |
| CCc1c(C)[nH]c2ccc3[nH]c(=O)cc(Cl)c3c12 | < 8.00 |
| Cc1ccc(-c2c(C)c3c4c(Cl)cc(=O)[nH]c4ccc3n2C[C@@H](O)C(F)(F)F)o1 | > 8.30 |
| CCC1C(C)c2c(ccc3[nH]c(=O)cc(C(F)(F)F)c23)N1CC(F)(F)C(F)(F)F (racemic) | > 8.30 |

Please look at the following molecule next.
QUERY: Checklist item: pKi tested on human AR (Homo sapiens, UniProt P10275), entry Cc1c(-c2ccccc2F)n(CC(F)(F)F)c2ccc3[nH]c(=O)cc(Cl)c3c12 , value?
RESULT: > 8.30

====

- tested target: human AR (Homo sapiens)
- Construct: expressed in transfected cells; host or cells: COS-1 cells
- assay info: IR Binding Assay: whole cell competitive binding of test compounds against 3H-DHT in COS-1 cells transfected with pRShAR
Measured Ki by item

Sample answers from the record:
| molecule | tested target | Ki |
| --- | --- | --- |
| CCc1c(C)c2c3c(Cl)cc(=O)[nH]c3ccc2n1C[C@@H](O)C(F)(F)F [Compound 281] | human AR (Homo sapiens) | < 5 nM |
| Cc1c(-c2ccc(F)cc2F)[nH]c2ccc3[nH]c(=O)cc(Cl)c3c12 [Compound 117] | human AR (Homo sapiens) | < 5 nM |
| Cc1ccc(-c2c(C)c3c4c(Cl)cc(=O)[nH]c4ccc3n2CC(F)(F)F)s1 [Compound 258] | human AR (Homo sapiens) | < 5 nM |
| CC1c2c(ccc3[nH]c(=O)cc(C(F)(F)F)c23)N(CCC(F)(F)F)C1C (racemic) [Compound 174] | human AR (Homo sapiens) | < 5 nM |
| Cc1c(CCCI)c2c3c(Cl)cc(=O)[nH]c3ccc2n1CC(F)(F)C(F)(F)F [Compound 270] | human AR (Homo sapiens) | > 10 nM |

QUERY: Which Ki value belongs to Cc1cc2c(ccc3[nH]c(=O)cc(Cl)c32)[nH]1 [Compound 112] ?
RESULT: > 10 nM

QUERY: Can you share its Ki? I mean this molecule: CCc1c(C)c2c3c(C(F)(F)F)cc(=O)[nH]c3ccc2n1CC(O)C(F)(F)F (racemic) [Compound 247]
RESULT: < 5 nM

QUERY: Given the entry CCCc1c(C)n(CC(F)(F)F)c2ccc3[nH]c(=O)cc(Cl)c3c12 [Compound 210] , report its measured Ki.
RESULT: < 5 nM

QUERY: Ki lookup needed for CC1c2c(ccc3[nH]c(=O)cc(Cl)c23)N(CC(F)(F)F)C1c1ccccc1F (racemic) [Compound 156] , thanks.
RESULT: < 5 nM
